ΔH (change in heart rate) for assorted compounds
# Test system: anesthetized cats (evoked responses of anterior tibial muscle)
# measurement.notes: animal or person
# measurement.context: in vivo
# Protocol: a) Adult, male albino rats were anesthetized with pentobarbital injected intraperitoneally. The trachea was cannulated for artificial respiration via a small animal respirator. […] The intensity, onset, and duration of neuromuscular block and its type were determined with each agent. Through administering several doses, the doses corresponding to 50%, 80% and 90% neuromuscular block were determined. […]
Provide the reading as a plain figure in %.

Here's what some known entries look like.
CC(=O)Oc1ccc(C[N+]2(C)C3CCCC2CC(OC(=O)CCCCCCC(=O)OC2CC4CCCC(C2)[N+]4(C)Cc2ccc(OC(C)=O)c(OC(C)=O)c2)C3)cc1OC(C)=O.[Br-].[Br-] (stereo not drawn); 0
CC(=O)Oc1ccc(C[N+]2(C)C3CCCC2CC(OC(=O)CCCC(=O)OC2CC4CCCC(C2)[N+]4(C)Cc2ccc(OC(C)=O)c(OC(C)=O)c2)C3)cc1OC(C)=O.[Br-].[Br-] (stereo not drawn); 0
CC(=O)Oc1ccc(C[N+]2(C)C3CCC2CC(OC(=O)C2C4C=CC(C4)C2C(=O)OC2CC4CCC(C2)[N+]4(C)Cc2ccc(OC(C)=O)c(OC(C)=O)c2)C3)cc1OC(C)=O.[Br-].[Br-] (stereo not drawn) [bis[N-(3,4-diacetoxybenzyl)tropanium-3α-yl]trans-3,6-endomet]; −12
COc1cc(C[N+]2(C)C3CCC2CC(OC(=O)C2C4C=CC(C4)C2C(=O)OC2CC4CCC(C2)[N+]4(C)Cc2ccc(OC(C)=O)c(OC)c2)C3)ccc1OC(C)=O.[Br-].[Br-] (stereo not drawn); 5
CC(=O)Oc1ccc(C[N+]2(C)C3CCCC2CC(OC(=O)CCCCC(=O)OC2CC4CCCC(C2)[N+]4(C)Cc2ccc(OC(C)=O)c(OC(C)=O)c2)C3)cc1OC(C)=O.[Br-].[Br-] (stereo not drawn); 0

[ask] Missing value: ΔH (change in heart rate), anesthetized cats (evoked responses of anterior tibial muscle), entry CC(=O)Oc1ccc(C[N+]2(C)C3CCCC2CC(OC(=O)C2CCC2C(=O)OC2CC4CCCC(C2)[N+]4(C)Cc2ccc(OC(C)=O)c(OC(C)=O)c2)C3)cc1OC(C)=O.[Br-].[Br-] (stereo not drawn) . Fill in?
[reply] 0

###

# System: rabbits
# measurement.notes: In vivo neuromuscular block and cardiovascular side effects, rabbit (Example 8, Table 7)
# measurement.context: Oryctolagus cuniculus, intravenous dose causing 50% neuromuscular block, read-out: ED50
property.name: ED50 (mg/kg)
Numeric answer only, unit mg/kg assumed.

In the examples that follow, each entry is paired with its recorded ED50.
C[N+]1(Cc2ccccc2)[C@@H]2CC[C@H]1C[C@@H](OC(=O)CCCCCCCCC(=O)O[C@H]1C[C@H]3CC[C@@H](C1)[N+]3(C)Cc1ccccc1)C2.[Br-].[Br-] (some centres unmarked) [reference compound]; 0.075
COc1cc(C[N+]2(C)[C@@H]3CC[C@H]2C[C@@H](OC(=O)C2CCCC(C(=O)O[C@H]4C[C@H]5CC[C@@H](C4)[N+]5(C)Cc4ccc(OC(C)=O)c(OC)c4)C2)C3)ccc1OC(C)=O.[Br-].[Br-] (some centres unmarked); 0.165
CC[N+]1(C)[C@@H]2CC[C@H]1C[C@@H](OC(=O)CCCCC(=O)O[C@H]1C[C@H]3CC[C@@H](C1)[N+]3(C)CC)C2.[I-].[I-] (some centres unmarked) [reference compound]; 0.15

[ask] ED50 lookup needed for COc1cc(C[N+]2(C)[C@@H]3CC[C@H]2C[C@@H](OC(=O)CCCCCCCCCC(=O)O[C@H]2C[C@H]4CC[C@@H](C2)[N+]4(C)Cc2cc(OC)c(OC(C)=O)c(OC)c2)C3)cc(OC)c1OC(C)=O.[Br-].[Br-] (some centres unmarked) , thanks.
[reply] 0.5

[ask] If you can, please state the reported ED50 value of C=CC[N+]1([C@H]2C[C@H]3[C@@H]4CC[C@H]5C[C@H](O)[C@@H](N6CCOCC6)C[C@]5(C)[C@H]4CC[C@]3(C)[C@H]2OC(C)=O)CCCC1 [Rocuronium, reference compound] .
[reply] 0.03

###

# Tested on: rabbits
# measurement.notes: In vivo neuromuscular block and cardiovascular side effects, rabbit (Example 8, Table 7)
# measurement.context: Oryctolagus cuniculus, intravenous dose causing 50% neuromuscular block, read-out: ED50
property.name: ED50 (mg/kg)
Give the value in mg/kg but do not write mg/kg after it.

CCC(=O)Oc1ccc(C[N+]2(C)[C@@H]3CC[C@H]2C[C@@H](OC(=O)CCCCC(=O)O[C@H]2C[C@H]4CC[C@@H](C2)[N+]4(C)Cc2ccc(OC(=O)CC)c(OC(=O)CC)c2)C3)cc1OC(=O)CC.[Br-].[Br-] (some centres unmarked); 0.075
CC(=O)Oc1ccc(C[N+]2(C)[C@@H]3CC[C@H]2C[C@@H](OC(=O)CCCC(=O)O[C@H]2C[C@H]4CC[C@@H](C2)[N+]4(C)Cc2ccc(OC(C)=O)c(OC(C)=O)c2)C3)cc1OC(C)=O.[Br-].[Br-] (some centres unmarked); 0.065

[ask] For the compound COc1cc(C[N+]2(C)[C@@H]3CC[C@H]2C[C@@H](OC(=O)C2CCC2C(=O)O[C@H]2C[C@H]4CC[C@@H](C2)[N+]4(C)Cc2ccc(OC(C)=O)c(OC)c2)C3)ccc1OC(C)=O.[Br-].[Br-] (some centres unmarked) , what ED50 is on record?
[reply] 0.075

[ask] Entry COc1cc(C[N+]2(C)[C@@H]3CC[C@H]2C[C@@H](OC(=O)C2CCC2C(=O)O[C@H]2C[C@H]4CC[C@@H](C2)[N+]4(C)Cc2cc(OC)c(OC(C)=O)c(OC)c2)C3)cc(OC)c1OC(C)=O.[Br-].[Br-] (some centres unmarked) has what ED50?
[reply] 0.298

[ask] Bench note: what ED50 did CCC(=O)Oc1c(OC)cc(C[N+]2(C)[C@@H]3CC[C@H]2C[C@@H](OC(=O)C2CCCC(C(=O)O[C@H]4C[C@H]5CC[C@@H](C4)[N+]5(C)Cc4cc(OC)c(OC(=O)CC)c(OC)c4)C2)C3)cc1OC.[Br-].[Br-] (some centres unmarked) show?
[reply] 0.4

###

Property: ED50; scope: individual compounds
# System: rabbits
# measurement.notes: In vivo neuromuscular block and cardiovascular side effects, rabbit (Example 8, Table 7)
# measurement.context: Oryctolagus cuniculus, intravenous dose causing 50% neuromuscular block, read-out: ED50
Number only, in mg/kg; omit the unit.

Recorded ED50, per entry:
CCC(=O)Oc1ccc(C[N+]2(C)[C@@H]3CC[C@H]2C[C@@H](OC(=O)CCCC(=O)O[C@H]2C[C@H]4CC[C@@H](C2)[N+]4(C)Cc2ccc(OC(=O)CC)c(OC(=O)CC)c2)C3)cc1OC(=O)CC.[Br-].[Br-] (stereo partly shown); 0.065
COc1cc2c(cc1OC)[C@@H](Cc1cc(OC)c(OC)c(OC)c1)[N+](C)(CCCOC(=O)CC/C=C/CCC(=O)OCCC[N+]1(C)CCc3cc(OC)c(OC)cc3[C@H]1Cc1cc(OC)c(OC)c(OC)c1)CC2 (stereo partly shown) [Mivacurium, reference compound]; 0.02
CC(=O)Oc1ccc(C[N+]2(C)[C@@H]3CC[C@H]2C[C@@H](OC(=O)C2CCCC(C(=O)O[C@H]4C[C@H]5CC[C@@H](C4)[N+]5(C)Cc4ccc(OC(C)=O)c(OC(C)=O)c4)C2)C3)cc1OC(C)=O.[Br-].[Br-] (stereo partly shown); 0.1

Now for the compound whose ED50 we want.
[ask] Dear colleague, I am looking for the recorded ED50 of the following compound: CC(=O)Oc1ccc(C[N+]2(C)[C@@H]3CC[C@H]2C[C@@H](OC(=O)C2CCC2C(=O)O[C@H]2C[C@H]4CC[C@@H](C2)[N+]4(C)Cc2ccc(OC(C)=O)c(OC(C)=O)c2)C3)cc1OC(C)=O.[Br-].[Br-] (stereo partly shown)
[reply] 0.078

###

Reported ΔBP (change in arterial blood pressure) values for the following compounds.
# Test system: anesthetized juvenile pigs
# measurement.notes: animal or person
# Format: in vivo
# measurement.context: pig, in vivo
Numeric answer only, unit % assumed.

Answered cases to consult:
CC(=O)Oc1ccc(C[N+]2(C)C3CCCC2CC(OC(=O)CCCCC(=O)OC2CC4CCCC(C2)[N+]4(C)Cc2ccc(OC(C)=O)c(OC(C)=O)c2)C3)cc1OC(C)=O.[Br-].[Br-] (centres unmarked); 0
CCC(=O)Oc1ccc(C[N+]2(C)C3CCCC2CC(OC(=O)CCCCCC(=O)OC2CC4CCCC(C2)[N+]4(C)Cc2ccc(OC(=O)CC)c(OC(=O)CC)c2)C3)cc1OC(=O)CC.[Br-].[Br-] (centres unmarked); 0
CCC(=O)Oc1ccc(C[N+]2(C)C3CCCC2CC(OC(=O)CCCCC(=O)OC2CC4CCCC(C2)[N+]4(C)Cc2ccc(OC(=O)CC)c(OC(=O)CC)c2)C3)cc1OC(=O)CC.[Br-].[Br-] (centres unmarked); 0

[ask] Could you share which ΔBP (change in arterial blood pressure) value was measured for C=CC[N+]1([C@H]2C[C@H]3[C@@H]4CC[C@H]5C[C@H](O)[C@@H](N6CCOCC6)C[C@]5(C)[C@H]4CC[C@]3(C)[C@H]2OC(C)=O)CCCC1 [Rocuronium, reference compound] ?
[reply] 0

[ask] Give the measured ΔBP (change in arterial blood pressure) of CCC(=O)Oc1ccc(C[N+]2(C)C3CCCC2CC(OC(=O)C2CCC2C(=O)OC2CC4CCCC(C2)[N+]4(C)Cc2ccc(OC(=O)CC)c(OC(=O)CC)c2)C3)cc1OC(=O)CC.[Br-].[Br-] (centres unmarked) .
[reply] 0
